Tested on: MALME-3M melanoma
Assay: NCI tumour cell line growth inhibition, 48 h; in the data active = GI50 below about 0.43 µM; inactive = the rest
Respond only with the outcome that fits, drawn from class 1 = active, class 0 = inactive

Worked examples follow.
{"molecule": "CN1C(=O)N(C)C2C1NN=c1s/c(=C\\c3ccc(Cl)cc3Cl)c(=O)n12 (centres undefined)", "assignedCategory": "class 0"}
{"molecule": "CC[C@H]1[C@@H]2C=C[C@@H]3[C@H]4C/C=C\\C(=O)NCCC[C@@H]5NC(=O)/C(=C(O)/C=C/[C@@H]4C[C@@H]3[C@H]2C[C@H]1C)C5=O", "assignedCategory": "class 0"}
{"molecule": "CCC[CH2][Sn]([Cl])([CH2]CCC)[CH2]CCC", "assignedCategory": "class 1"}

Query: Hello, I am checking results. What call was entered for "CCOC(=O)C(Cc1ccc(CCCC(=O)NCCC(=O)Nc2ccc3nc(C)sc3c2)cc1)C(=O)OCC" ?
Reply: class 0

Query: Could you check what this test reported for "Cc1ccc(NC(=O)CC2CC2)cc1-c1ccc(C(=O)NCC2CC2)cc1" ?
Reply: class 0

Query: Any idea what this test logged for CCC(/C=C/C1OC(=O)C=CC1C)=C\C(C)C/C=C/C(C)=C/C(C)C(=O)C(C)C(O)C(C)C/C(C)=C/C(=O)O (centres undefined) ?
Reply: class 1

Query: For O=C1OCC2=C1C(c1cccc(Br)c1)c1cc3c(cc1N2CCO)CCC3 (centres undefined) , which call appears in the assay record?
Reply: class 1

Query: In this assay, the call recorded for "COc1ccc(-c2nc3ccc(-c4nc5ccc(N6CCN(c7ccccc7)CC6)cc5[nH]4)cc3[nH]2)cc1OC" was what?
Reply: class 0

Query: Hi, do you know how "COc1cc(-c2cc(-c3cc4c([nH]c5ccccc54)c(-c4cc(OC)c(OC)c(OC)c4)n3)cc(-c3ccccc3)n2)cc(OC)c1OC" came out in this test?
Reply: class 0
